target: PPARγ-RXRα heterodimer (Homo sapiens, UniProt P37231); assay: PPARγ-RXRα heterodimer transactivation assay (luciferase reporter in PPARγ: RXRα: 4ERPP/CHO-K1 cell); conditions: luciferase induction, 48 hours, concentration for 50% of the maximum activity
Sequence (P37231 29-505): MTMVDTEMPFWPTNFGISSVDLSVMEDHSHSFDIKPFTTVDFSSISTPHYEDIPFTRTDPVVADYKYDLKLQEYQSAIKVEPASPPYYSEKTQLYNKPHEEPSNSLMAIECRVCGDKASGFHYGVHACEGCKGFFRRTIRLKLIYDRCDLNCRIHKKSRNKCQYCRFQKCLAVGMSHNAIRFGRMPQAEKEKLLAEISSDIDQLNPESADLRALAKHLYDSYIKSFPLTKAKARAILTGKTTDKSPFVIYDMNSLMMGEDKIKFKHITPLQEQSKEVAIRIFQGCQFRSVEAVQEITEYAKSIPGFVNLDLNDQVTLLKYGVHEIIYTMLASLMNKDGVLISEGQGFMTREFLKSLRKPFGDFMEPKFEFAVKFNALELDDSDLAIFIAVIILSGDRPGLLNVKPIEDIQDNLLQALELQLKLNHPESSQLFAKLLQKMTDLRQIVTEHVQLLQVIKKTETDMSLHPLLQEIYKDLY
Sequence (P19793 whole entry partner): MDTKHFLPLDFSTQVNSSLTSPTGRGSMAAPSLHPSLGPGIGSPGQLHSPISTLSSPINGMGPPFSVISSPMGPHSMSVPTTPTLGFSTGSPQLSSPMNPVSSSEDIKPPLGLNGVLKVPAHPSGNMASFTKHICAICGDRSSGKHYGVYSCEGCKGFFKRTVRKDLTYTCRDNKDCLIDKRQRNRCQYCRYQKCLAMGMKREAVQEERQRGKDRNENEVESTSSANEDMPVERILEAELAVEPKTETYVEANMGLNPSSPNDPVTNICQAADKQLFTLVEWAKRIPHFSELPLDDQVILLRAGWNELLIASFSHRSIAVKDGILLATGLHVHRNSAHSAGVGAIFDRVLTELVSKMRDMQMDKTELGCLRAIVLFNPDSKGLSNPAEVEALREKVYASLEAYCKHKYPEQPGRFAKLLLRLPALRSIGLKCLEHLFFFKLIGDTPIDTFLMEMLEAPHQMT
propertyLabel: EC50 (nM)

Look over these answered cases.
Cc1oc(-c2ccccc2)nc1COc1ccc(CO/N=C(\CCC(=O)O)c2ccc(F)cc2)cc1 ... 47
Cc1oc(-c2ccccc2)nc1COc1ccc(CO/N=C(\C(=O)O)c2ccc(Oc3ccccc3)cc2)cc1 ... 410
Cc1oc(-c2ccccc2)nc1COc1ccc(CO/N=C(\CCCCCCC(=O)O)c2ccccc2)cc1 ... 260

A. Cc1oc(-c2ccccc2)nc1COc1ccc(CO/N=C(\CCC(N)=O)c2ccccc2)cc1
B. Cc1oc(-c2ccccc2)nc1COc1ccc(CO/N=C(\C(=O)O)C(C)C)cc1
Hey, between A and B which has a smaller measured EC50? Response format: the label of the selected entry.
A

* * *

Measured melting point of individual entries

Below, each entry is followed by its recorded melting point result.
O=C(O)CC/C(=N\OCc1ccc(OCc2cc(-c3ccccc3)no2)cc1)c1ccccc1 ... 96 to 97 °C
Cc1oc(-c2ccccc2)nc1COc1ccc(CO/N=C(\C(=O)O)c2ccc(/C=C/c3ccccc3)cc2)cc1 ... 194 to 195 °C (dec.)
Cc1oc(-c2ccco2)nc1COc1ccc(CO/N=C(\CCCCCCC(=O)O)c2ccccc2)cc1 ... 75 to 77 °C

What value of melting point has been reported for the following compound? COC(=O)CC/C(=N\OCc1ccc(OCc2nc(-c3ccco3)oc2C)c(OC)c1)c1ccccc1
67 to 69 °C

Entry to check: O=C(O)CC/C(=N\OCc1ccc(OCc2cn3c(Cl)cccc3n2)cc1)c1ccccc1
160 to 161 °C

Please give the result for Cc1oc(-c2ccccc2)nc1COc1ccc(CO/N=C(\CCCCC(=O)O)c2ccccc2)cc1 too.
112 to 113 °C

* * *

propertyLabel: melting point

Cc1sc(-c2ccccc2)nc1COc1ccc(CO/N=C(\CCC(=O)O)c2ccccc2)cc1 [Example 91] ... 99 to 100 °C
O=C(O)CCCC/C(=N\OCc1ccc(OCc2noc(-c3ccccc3)n2)cc1)c1ccccc1 [Example 136] ... 88 to 89 °C
Cc1oc(-c2ccccc2)nc1COc1ccc(CO/N=C(\CCCCC(=O)NS(C)(=O)=O)c2ccccc2)cc1 [Example 142] ... 130 to 132 °C
O=C(O)CCCCCC/C(=N\OCc1ccc(OCc2noc(-c3ccccc3)n2)cc1)c1ccccc1 [Example 128] ... 76 to 77 °C
CN(CCOc1ccc(CO/N=C(\CCC(=O)O)c2ccccc2)cc1)c1ncccn1 [Example 51] ... 72 to 73 °C

Give the measured melting point of Cc1oc(-c2ccccc2)nc1COc1ccc(CO/N=C2\CC(C(=O)O)c3ccccc32)cc1 (centres unmarked) [Example 62] .
148 to 149 °C

Queued: Cc1oc(-c2ccccc2)nc1COc1ccc(CO/N=C(\CCCCCCC(=O)O)c2ccc(F)cc2)cc1 [Example 125]
79 to 80 °C

* * *

Reported melting point by item:

In the examples that follow, each entry is paired with its recorded melting point.
Cc1oc(-c2ccccc2)nc1COc1ccc(CO/N=C(\CCC(=O)O)c2cccnc2)cc1 ... 158 to 159 °C
O=C(O)CC/C(=N\OCc1ccc(OCc2cc(-c3ccccc3)on2)cc1)c1ccccc1 ... 100 to 101 °C
Cc1oc(-c2ccccc2)nc1COc1ccc(CO/N=C(/CCCCCCC(=O)O)c2ccc(F)cc2)cc1 ... 56 to 57 °C
Cc1oc(-c2ccccc2)nc1COc1ccc(CO/N=C(\C(=O)O)c2ccc(F)cc2)cc1 ... 182 to 183 °C (dec.)
COc1ccc(/C(CCCCCCC(=O)O)=N/OCc2ccc(OCc3nc(-c4ccccc4)oc3C)cc2)cc1 ... 69 to 70 °C
Cc1oc(-c2ccccc2)nc1CCOc1ccc(CO/N=C(\CCC(=O)O)c2ccccc2)cc1 ... 106 to 107 °C
Cc1oc(-c2ccccc2)nc1COc1ccc(CO/N=C(\C(=O)O)c2ccc(-c3ccsc3)cc2)cc1 ... 205 to 206 °C (dec.)

Attention now shifts to the item below.
Would you mind telling me what melting point value was observed for O=C(O)CC/C(=N\OCc1ccc(OCc2cn3ccccc3n2)cc1)c1ccccc1 ?
180 to 182 °C

* * *

propertyLabel: melting point

Recorded results for 5 compounds are shown here.
CCOC(=O)/C(=N\OCc1ccc(OCc2nc(-c3ccccc3)oc2C)cc1)c1ccc(OC)cc1 [Example 19] ... 102 to 103 °C
O=C(O)CC/C(=N\OCc1ccc(OCc2ccc3ccccc3n2)cc1)c1ccccc1 [Example 104] ... 133 to 134 °C
Cc1oc(-c2ccccc2)nc1COc1ccc(CO/N=C(/C(=O)O)c2cccnc2)cc1 [Example 37] ... 130 to 131 °C (dec.)
CCOC(=O)CC/C(=N\OCc1ccc(OCc2nc(-c3ccccc3)oc2C)cc1)c1ccc(Oc2ccccc2)cc1 [Example 46] ... 118 to 119 °C
Cc1oc(-c2ccccc2)nc1COc1ccc(CCCO/N=C(\C(=O)O)c2ccccc2)cc1 [Example 2] ... 165 to 166 °C (dec.)

Next item in the queue.
May I ask what melting point has been recorded for O=C(O)CCCC/C(=N\OCc1ccc(OCc2nc(-c3ccccc3)no2)cc1)c1ccccc1 [Example 138] ?
91 to 92 °C

* * *

system: KKA^y mice; test: Hypoglycemic and hypolipidemic actions in mice (test compound in diet, plasma glucose and triglyceride); type: in vivo; settings: Mus musculus, feed or water, 96 h, 0.01% in powdered diet, 4 days, plasma glucose, compared with non-treatment group, read-out: Hypoglycemic effect (% reduction)
propertyLabel: inhibition in vivo at 0.01 % (%)
# output: bare number, implied unit %

Sample records with inhibition in vivo at 0.01 %:
Cc1oc(-c2ccccc2)nc1COc1ccc(CO/N=C(\C(=O)O)c2ccc(Br)cc2)cc1 [Example 10] ... 36
Cc1oc(-c2ccccc2)nc1COc1ccc(CO/N=C(\CCC(=O)O)c2ccccc2)cc1 [Example 7] ... 42
Cc1oc(-c2ccccc2)nc1COc1ccc(CO/N=C(\C(=O)O)C(C)C)cc1 [Example 25] ... 38

// returns reported inhibition in vivo at 0.01 % for input Cc1oc(-c2ccccc2)nc1COc1ccc(CO/N=C(\C(=O)O)c2ccc(Oc3ccccc3)cc2)cc1 [Example 11]
49

Then what about the molecule Cc1oc(-c2ccccc2)nc1COc1ccc(CO/N=C(\CCC(=O)O)c2ccc(F)cc2)cc1 [Example 17] ?
49

Same thing, different molecule: Cc1oc(-c2ccccc2)nc1COc1ccc(CO/N=C(\CCCCCCC(=O)O)c2ccccc2)cc1 [Example 81]
54

Consider next the molecule Cc1oc(-c2ccccc2)nc1COc1ccc(CO/N=C(\C(=O)O)c2ccccc2)cc1 [Example 1] in the same way.
36

* * *

Known melting point of a selection of compounds

Cc1oc(-c2ccccc2)nc1COc1cccc(CO/N=C(\CCCCC(=O)O)c2ccccc2)c1 [Example 76] ... 114 to 115 °C

Consider the compound shown here: COC(=O)CC/C(=N\OCc1ccc(OCCc2nc(-c3ccccc3)oc2C)cc1)c1ccccc1 [Example 48] What is its recorded melting point?
73 to 74 °C

// next record Cc1oc(-c2cccs2)nc1COc1ccc(CO/N=C(\CCCCC(=O)O)c2ccccc2)cc1 [Example 135]
101 to 102 °C

Same question, Cc1oc(-c2ccccc2)nc1COc1ccc(CO/N=C(\C(=O)O)c2cccnc2)cc1 [Example 35] this time
156 to 157 °C (dec.)

* * *

Listed below: melting point values for each entry.

Field: example entries. Status: answers known.
Cc1oc(-c2ccccc2)nc1COc1ccc(CO/N=C(\CC(N)=O)c2ccccc2)cc1 ... 164 to 165 °C
Cc1oc(-c2ccco2)nc1COc1ccc(CO/N=C(\CCC(=O)O)c2ccccc2)cc1 ... 124 to 125 °C
Cc1oc(-c2ccccc2)nc1COc1ccc(CO/N=C(\CCC(=O)O)c2ccc(Oc3ccccc3)cc2)cc1 ... 131 to 132 °C
O=C(O)CC/C(=N\OCc1ccc(OCc2ccccc2)cc1)c1ccccc1 ... 86 to 87 °C
COc1cc(CO/N=C(\CCC(=O)O)c2ccccc2)ccc1OCc1nc(-c2ccco2)oc1C ... 131 to 132 °C

Look at this compound and give its reported melting point. Cc1oc(-c2ccccc2)nc1COc1ccc(CO/N=C(\C(=O)O)c2cccc(Oc3ccccc3)c2)cc1
173 to 174 °C (dec.)

Param item: Cc1oc(-c2ccccc2)nc1COc1ccccc1CO/N=C(\CCC(=O)O)c1ccccc1
116 to 117 °C

// repeat for Cc1oc(-c2ccccc2)nc1COc1ccc(CO/N=C(\C(=O)O)c2cccc(Br)c2)cc1 and report
181 to 182 °C (dec.)

Quick one: Cc1oc(-c2ccccc2)nc1COc1ccc(CO/N=C(/CCC(N)=O)c2ccccc2)cc1
110 to 112 °C

Again, but for Cc1oc(-c2ccccc2)nc1COc1ccc(CO/N=C(\CCCC(C)(C)C(=O)O)c2ccccc2)cc1
111 to 112 °C

Hello, the source for this data is patent US6924300B2, in case you need it.
